system: MLCK; construct: gene MYLK3; settings: concentration: 1 μM, replicates: in singlicate; n = 1;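 also: KINOMEscan kinase panel screen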
endpoint.label: %Inh (%)
I only need the number, in %, no unit after it.

Some compounds with recorded %Inh:
                                   compound  endpoint_label  measured
0  COc1cc(Nc2nccc(N3CCC(NC(=O)Nc4cccc(C(C)=O)c4)C3)n2)cc(OC)c1OC (centres unmarked) [GSK1379753]            %Inh         0
1  CC(C)c1nc(-c2cccc(NS(=O)(=O)c3c(F)cccc3F)c2F)c(-c2ccnc(Nc3ccc(N4CCOCC4)nc3)n2)s1 [GSK2008607]            %Inh         0
2  c1ccc(Oc2ccc(Nc3ccnc4cc(-c5ccc(CNCCN6CCOCC6)o5)ccc34)cc2)nc1 [GW567145]            %Inh        10
3  O=C(Nc1ccccc1F)NC1CCN(c2ccnc(Nc3ccc(F)cc3)n2)CC1 [GSK1379800]            %Inh         0
4  COc1cccc(NC(=O)NC2CCN(c3ccnc(Nc4cc(OC)c(OC)c(OC)c4)n3)C2)c1 (centres unmarked) [GSK1379763]            %Inh         0

Query: Look at this compound and give its reported %Inh. CCCCc1nn2ncccc2c1-c1ccnc(Nc2ccc(N3CCN(C)CC3)cc2)n1 [GW684941]
Response: 0

Query: Look at this compound and give its reported %Inh. Cc1ccc(C(=O)N2CC[C@@H](O)C2)cc1-n1c(C)cc(OCc2ccc(F)cc2F)c(Br)c1=O
Response: 0

Query: Look at this compound and give its reported %Inh. Nc1n[nH]c2cnc(-c3ccccc3)cc12 [SB-642124]
Response: 1

====

system: LIMK1; conditions: concentration: 1 μM, replicates: in singlicate; n = 1
endpoint.label: %Inh (%)
I only need the number, in %, no unit after it.

In [3]: df
Out[3]:
                                   compound  measured
0  CC(C)c1nc(-c2cccc(NS(=O)(=O)c3c(F)cccc3F)c2F)c(-c2ccnc(Nc3ccc(N4CCOCC4)nc3)n2)s1 [GSK2008607]      99.9
1  CN(C)Cc1ccc(-c2ccc3c(Nc4ccc(Oc5ccccn5)cc4)ccnc3c2)o1 [GW567148]         0
2  Fc1ccc(-c2ncn(C3CCNCC3)c2-c2ccnc(Oc3ccc(-c4ccccc4)cc3)n2)cc1 [SB-245391]         0
3  COc1cc(Nc2nccc(-c3c(-c4cccc(NC(=O)c5c(F)cccc5F)c4)nn4ccccc34)n2)cc(OC)c1OC [GSK323521]         2
4  COc1cc(Nc2nccc(N3CCC(NC(=O)c4cc5ccccc5s4)C3)n2)cc(OC)c1OC (centres unmarked) [GSK1379760]        17

Query: Look at this compound and give its reported %Inh. CN(c1ccc(NC(=O)Nc2cc(C(F)(F)F)ccc2F)cc1)c1ccnc(Nc2ccc(S(N)(=O)=O)cc2)n1 [GW809893]
Response: 89

Query: Look at this compound and give its reported %Inh. CCS(=O)(=O)c1ccc(OC)c(Nc2nccc(-c3c(-c4cccc(NC(=O)c5c(F)cccc5F)c4)nn4ncccc34)n2)c1 [GSK326180]
Response: 23

Query: Look at this compound and give its reported %Inh. c1ccc(-c2cnc3nccnn23)cc1 [AH20685]
Response: 19

====

system: RIPK2; conditions: concentration: 1 μM, replicates: in singlicate; n = 1
Note to self: class = bucket of %Inh, per LOW = under 10%, MEDIUM = from 10% up to 40%, HIGH = 40% and over

Reference set, count: 8
In [3]: df
Out[3]:
                                   compound  assigned_category
0     O=C(Nc1n[nH]c2cc(-c3ccoc3)ccc12)C1CC1                LOW
1  Cl.Cl.NCC(C(=O)Nc1cc(Br)c(-c2ccnc3[nH]ccc23)s1)c1ccccc1 (stereo not drawn)                LOW
2  Cc1cccc(Nc2nc(N[C@H]3CCNC3)ncc2C(N)=O)c1.Cl                LOW
3      c1ccc(-c2n[nH]cc2Nc2ccnc3ccccc23)nc1             MEDIUM
4  O=C(Nc1cccc(-c2nn3ccccc3c2-c2ccnc(Nc3cccc(F)c3)n2)c1)c1c(F)ccc(F)c1Cl             MEDIUM
5  CC(C)c1nc(-c2cccc(NS(=O)(=O)c3c(F)cccc3F)c2F)c(-c2ccnc(Nc3ccc(N4CCOCC4)nc3)n2)s1               HIGH
6  COC(=O)Nc1nc2cc(Oc3ccc(NC(=O)Nc4cc(C(F)(F)F)ccc4F)cn3)ccc2[nH]1.Cl.Cl               HIGH
7  COc1cc2c(cc1OCCN1CCNCC1)ncc1c3ccc(C#N)cc3[nH]c21             MEDIUM

Query: Category of CNC(=O)c1ccccc1Nc1nc(Nc2ccc(N3CCOCC3)cc2)ncc1Cl.Cl :
Response: MEDIUM

Query: Category of CN(c1ccc(NC(=O)Nc2cc(C(F)(F)F)ccc2F)cc1)c1ccnc(Nc2ccc(S(N)(=O)=O)cc2)n1 :
Response: HIGH

Query: Category of Cn1cc(-c2[nH]c3cc(NC(=O)[C@H](N)C4CCCCC4)cc4c3c2C=NNC4=O)cn1 :
Response: LOW

====

tested on: MKNK2; details: concentration: 1 μM, replicates: in singlicate; n = 1
Each record is given Satisfied if its reported %Inh is strictly below 7%. Records at or above 7% are given Not satisfied.

Reference set, count: 3
                                   molecule  target_or_system  assigned_category
0  CN(C)Cc1ccc(-c2ccc3c(Nc4ccc(Oc5ccccn5)cc4)ccnc3c2)o1             MKNK2      Not satisfied
1  CN1CCN(Cc2cccc(-c3ccc4c(Nc5ccc(Oc6ccccc6)cc5)ccnc4c3)c2)CC1             MKNK2      Not satisfied
2  Cn1cc(-c2[nH]c3cc(NC(=O)[C@H](N)C4CCCCC4)cc4c3c2C=NNC4=O)cn1             MKNK2      Not satisfied

Now consider a different compound.
Query: Record O=C(Nc1ccccc1F)NC1CCN(c2ccnc(Nc3ccc(F)cc3)n2)CC1 : is its %Inh strictly below 7%?
Response: Satisfied

====

tested on: MYLK; details: concentration: 1 μM, replicates: in singlicate; n = 1
endpoint.label: %Inh (%)
I only need the number, in %, no unit after it.

>>> print(df.to_string())
                                   molecule  target_or_system  measured
0     O=C(Nc1n[nH]c2cc(-c3ccoc3)ccc12)C1CC1              MYLK        29
1  CN(c1ccc(NC(=O)Nc2cc(C(F)(F)F)ccc2F)cc1)c1ccnc(Nc2ccc(S(N)(=O)=O)cc2)n1              MYLK         0
2  CSc1cccc2c(-c3ccncn3)c(-c3ccc(F)cc3)nn12              MYLK        23
3  COc1cccc(C(=O)Nc2cccc(Oc3ccc4nc(NC(=O)C5CC5)cn4n3)c2)c1              MYLK        33
4  NCCCC(NC(=O)c1cc(Br)c(-c2ccnc3[nH]ccc23)s1)c1ccccc1.O=C(O)C(F)(F)F.O=C(O)C(F)(F)F (centres unmarked)              MYLK        23
5        Nc1ncnc2c1nc(-c1ccccc1)n2-c1ccccc1              MYLK        32

API: the following record is the query input.
Query: Look at this molecule and give its reported %Inh. Cn1cc(-c2ccc3c(c2)CCN3C(=O)Cc2cccc(Cl)c2)c2c(N)ncnc21
Response: 8

====

tested on: EPHA5; settings: concentration: 1 μM, replicates: in singlicate; n = 1
As shown below, each of these molecules has a reported %Inh value.

Some molecules with recorded %Inh:
                                   molecule  target_or_system  endpoint_label  measured
0  Clc1ccc(-c2nn3ncccc3c2-c2ccnc(Nc3ccc4c(c3)OCCO4)n2)cc1 [GW829116]             EPHA5            %Inh       19%
1  CCCCc1nn2ncccc2c1-c1ccnc(Nc2ccc(N3CCN(C)CC3)cc2)n1 [GW684941]             EPHA5            %Inh        0%
2  O=C(Nc1n[nH]c2cc(-c3ccoc3)ccc12)C1CC1 [SB-738481]             EPHA5            %Inh        2%
3  CCn1c(-c2nonc2N)nc2c(C#CC(C)(C)O)nc(OC[C@H](N)c3ccccc3)cc21 [GSK943949]             EPHA5            %Inh        0%

API: the following record is the query input.
Query: Look at this molecule and give its reported %Inh. Cl.c1ccc(-c2ccc3c(Nc4ccc5[nH]ccc5c4)ccnc3c2)nc1 [GW440138]
Response: 0%
